# Target or test system: MAP3K12 (human) (UniProt Q12852)
# Sequence (Q12852 whole entry, looked up): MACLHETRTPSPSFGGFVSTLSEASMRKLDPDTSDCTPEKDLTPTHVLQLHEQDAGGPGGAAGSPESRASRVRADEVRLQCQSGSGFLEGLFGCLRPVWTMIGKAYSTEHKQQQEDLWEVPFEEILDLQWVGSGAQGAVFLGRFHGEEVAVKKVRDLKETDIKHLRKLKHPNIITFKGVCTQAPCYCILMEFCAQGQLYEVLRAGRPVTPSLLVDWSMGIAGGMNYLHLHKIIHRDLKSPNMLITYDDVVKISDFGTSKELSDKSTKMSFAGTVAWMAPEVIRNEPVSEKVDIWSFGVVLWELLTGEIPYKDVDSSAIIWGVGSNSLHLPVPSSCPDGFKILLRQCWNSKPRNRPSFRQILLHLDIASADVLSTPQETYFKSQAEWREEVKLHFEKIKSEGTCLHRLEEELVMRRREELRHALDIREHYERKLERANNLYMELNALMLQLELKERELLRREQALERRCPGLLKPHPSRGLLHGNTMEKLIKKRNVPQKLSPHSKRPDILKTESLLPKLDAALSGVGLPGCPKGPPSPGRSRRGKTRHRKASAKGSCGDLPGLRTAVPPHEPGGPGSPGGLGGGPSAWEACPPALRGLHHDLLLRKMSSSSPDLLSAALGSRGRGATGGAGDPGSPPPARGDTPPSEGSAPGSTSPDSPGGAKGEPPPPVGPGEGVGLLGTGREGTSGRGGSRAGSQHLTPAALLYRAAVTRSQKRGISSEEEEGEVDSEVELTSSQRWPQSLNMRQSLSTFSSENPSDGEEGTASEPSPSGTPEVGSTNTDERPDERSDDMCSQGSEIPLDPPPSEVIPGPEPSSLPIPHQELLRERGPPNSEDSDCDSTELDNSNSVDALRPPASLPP
Outcome measure: Kd

Quick note, Kd for CO[C@@H]1[C@H](N(C)C(=O)c2ccccc2)C[C@H]2O[C@]1(C)n1c3ccccc3c3c4c(c5c6ccccc6n2c5c31)C(=O)NC4O (stereo partly specified) landed at > 10 µM

* * *

# Target or test system: MAPK9 (human)
Outcome measure: IC50

Sample Cc1c(C(=O)N2CCOc3ccc(-c4ccc(N)nc4)cc3C2)ccc(S(C)(=O)=O)c1F ; IC50 observed: > 10 µM
